- assay name: modulators of HCV replicon luciferase signal, primary screen, HCV replication inhibitor project, Huh7 cells, luciferase reporter (AID 1109);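 further: huh7 hepatoma cells harbouring a luciferase neomycin HCV replicon reporter; luciferase luminescence as measure of HCV replicon replication; test concentration not given here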
- setup conditions: 48 h, higher = more signal
Please note: True applies when z-score is -1 or greater, and False applies otherwise.

Tell me whether z-score is at least -1 here: CCCCCN1CC=CC23O[C@@H]4C=CCOC(=O)[C@@H]4[C@H]2C(=O)N(CCCO)[C@@H]3C1=O (stereo not given in full)
True

Is z-score for CN1C=C(C(=O)OCCS(C)(=O)=O)C(C(=O)OCCS(C)(=O)=O)=CC(CCCO)=CC1C1CC1 (stereo not given) at or above -1?
True

Could you verify whether the entry COC(=O)[C@@]1(Cc2ccc(OC)cc2)[C@H]2c3cc(C(=O)N4CCCC4)n(Cc4ccccn4)c3C[C@H]2CN1C(=O)c1ccccc1 shows z-score of no less than -1?
False

Is reported z-score greater than or equal to -1 here: C=CCNC(=O)[C@@H]1[C@H]2C(=O)O[C@H](c3ccccc3)[C@H](c3ccccc3)N2[C@H](c2ccc(O)cc2)[C@@]12C(=O)N(C(=O)OCCOC)c1ccccc12
False

// inclusive: z-score at least -1? input: COC(=O)c1ccc(C23CC2(C(NP(=O)(c2ccccc2)c2ccccc2)c2ccccc2)C3)cc1 (stereo not given)
False

Does z-score meet or surpass -1 for O=C1O[C@@H](c2ccccc2)[C@@H](c2ccccc2)N2[C@@H](c3ccccc3OCCO)[C@]3(C(=O)Nc4ccc(C#CC5(O)CCCCCC5)cc43)[C@@H](C(=O)Nc3nc4ccccc4s3)[C@H]12 ?
False

Could you please find out whether C=CCOC(=O)[C@H]1[C@@H]2C(=O)O[C@@H](c3ccccc3)[C@@H](c3ccccc3)N2[C@@H](c2ccc(OCCOC(=O)[C@@H]3C[C@@H]4C(=O)NCC(=O)N4[C@@H]3c3ccc(O)cc3)cc2)[C@]12C(=O)Nc1ccccc12 has z-score that meets -1 or exceeds it?
False

Is z-score for C=CCOC(=O)[C@@H]1[C@H]2C(=O)O[C@H](c3ccccc3)[C@H](c3ccccc3)N2[C@H](c2ccc(OCCOC(=O)[C@@H]3C[C@@H]4C(=O)NCC(=O)N4[C@@H]3c3cccc(OCCO)c3)cc2)[C@@]12C(=O)Nc1ccc(I)cc12 at or above -1?
False

Decide: is the reported value of z-score for CC(C)C(O)C1C=CC2C(=O)N(c3ccccc3)C(=O)C2N1Nc1ccc(C#N)cc1 (stereo not given) equal to or greater than -1?
True

Reported z-score at or above -1? O=C1c2ccccc2[C@@]2(Cc3ccccc3N(Cc3ccccc3)C2=O)[C@H](c2ccc(CO)cc2)N1C1CCCCC1
True

Record CC(=CC1CCCCC1)[C@@H](NC(=O)c1ccc(C(F)(F)F)cc1)c1ccc(-c2ccccc2)cc1 ; criterion: z-score no lower than -1. Met?
False

Given COCCOC(=O)N1C(=O)[C@@]2(c3cc(C#CCC(C(=O)OC)C(=O)OC)ccc31)[C@H](c1ccccc1OCCO)N1[C@H](c3ccccc3)[C@H](c3ccccc3)OC(=O)[C@H]1[C@@H]2C(N)=O , state whether its z-score is at least -1.
False

Threshold query (z-score >= -1) on O=C1N(CCS(=O)(=O)c2ccccc2)Cc2ccccc2[C@H]2OC(c3ccc(OCCCO)cc3)=N[C@@]12CCS(=O)(=O)c1ccccc1
False

Hello, I need to know if O=C/C=C/c1ccc2c(c1)OCO2 has measured z-score not below -1. Thanks!
True

z-score >= -1 for N[C@@H](Cc1ccccc1)Cn1cc(-c2ccccc2)nn1 ?
True
